Test system: B. cepacia (ATCC 25416)
Assay: Minimum Effective Concentration (MEC) Test Method
Type: cell-based, Burkholderia cepacia
Conditions: boosting agent (the label) at 5 mmol/L; 24 hours at room temperature
Experimental: Initial testing was conducted to screen a variety of surfactants in researching for potential antimicrobial boosting agents. The initial testing followed the methodology as described in the Minimum Effective Concentration (“MEC”) Test Method described in the Test Methods section herein. […] It is to be noted that the molarities listed in Table 1 are approximate values that were calculated based on the estimated activities of the ingredients and the molecular weights of the active ingredients. […]
I'd appreciate it if you could supply MEC of Lactic Acid (Purac FCC 88) paired with the potential boosting agent values for the items below.
Numbers only, in mmol/L.

A selection of reference data follows.
CCCCCCCCCCCC[N+](C)(C)CCCS(=O)(=O)[O-] [Lauryl Sultaine]    20
CCCCCCCC[N+](C)(C)CCCS(=O)(=O)[O-] [Caprylyl Sultaine]    40
CCCCCCCCCCCC[N+](C)(C)CC(O)CS(=O)(=O)[O-] (centres unmarked) [Lauryl Hydroxysultaine]    17
CCCCCCCCCCCCCCCC[N+](C)(C)CC(=O)[O-] [Cetyl Betaine]    40
CCCCCCCCCCCCCC[N+](C)(C)CCCS(=O)(=O)[O-] [Myristyl Sultaine]    40
CCCCCCCC[N+](C)(C)CC(=O)[O-] [Octyl Betaine]    40

Give measured MEC of Lactic Acid (Purac FCC 88) paired with the potential boosting agent for every item shown.
1. C[N+](C)(CCCS(=O)(=O)[O-])Cc1ccccc1 [Benzyl Sultaine]
2. C[N+](C)(CCO)CC(O)C[N+](C)(C)CCO.[Cl-].[Cl-]
3. CCCCCCCCCC[N+](C)(C)CCCS(=O)(=O)[O-] [Decyl Sultaine]
4. CCCCCCCC[N+](C)(C)[O-] [Octyldimethylamine Oxide]

1: 40; 2: 50; 3: 30; 4: 40

Query: MEC of Lactic Acid (Purac FCC 88) paired with the potential boosting agent; subject: CCCCCCCCCCCC(=O)OC(C)C(=O)OC(C)C(=O)[O-].[Na+] (centres unmarked) [Sodium Lauroyl Lactylate] 30
